systemUnderTest: Protein Tat (Human immunodeficiency virus type 1 group M subtype B (isolate HXB2)(HIV-1))
Sequence (P04608 whole entry): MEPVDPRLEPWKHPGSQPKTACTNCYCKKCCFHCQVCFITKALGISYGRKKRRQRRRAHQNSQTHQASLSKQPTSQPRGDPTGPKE
testMethodNotes: In vitro binding affinity towards Tat/TAR to determine interaction between TAR RNA and Tat peptide at room temperature using fluorescence spectrophotometer
Parameters: species or system Human immunodeficiency virus 1
recordedEndpoint: Kd (µM)

(I) N=C(N)NCCC[C@H](N)COC(=O)N(CCCCN)CC(=O)N[C@H](CCCCN)COC(N)=O
(II) N=c1c(O)c(O)/c1=N\CCCC(N)COC(=O)NC(CCCN=C(N)N)COC(N)=O (centres undefined)
Task: Problem: Given the entries I and II , determine which has the lower reported Kd. Please respond with the label that marks your chosen entry.
Result: I

Where do the numbers come from? From ChEMBL document CHEMBL1141050.
